- system-tested: GDP-bound KRAS wild-type protein (Homo sapiens)
- Sequence (P01116 whole entry): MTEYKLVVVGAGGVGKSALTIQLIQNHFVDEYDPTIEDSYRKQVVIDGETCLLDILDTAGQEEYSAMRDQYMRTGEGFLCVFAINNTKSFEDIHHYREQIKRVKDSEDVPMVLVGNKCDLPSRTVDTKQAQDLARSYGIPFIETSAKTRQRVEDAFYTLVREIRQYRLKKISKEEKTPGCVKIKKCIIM
- assay-comment: Binding to KRAS by surface plasmon resonance (SPR), Single Cycle Kinetics
- assay-context: SPR Single Cycle Kinetics, GDP-bound KRAS wild-type protein, 1:1 binding model; read-out: KRAS KD
pKd: −log10 of the molar value. Where a SMILES comes first, the peptide text is derived from it. Bridges are numbered along the chain shown (N, C = ends). [ ]: non-standard residue; d: D form. The star is where a group is joined. hPhe(3-Cl-4-CF3) = N[C@@H](CCc1ccc(C(F)(F)F)c(Cl)c1)C(=O)O; NPrPhe(4-CF3) = CCCN[C@@H](Cc1ccc(C(F)(F)F)cc1)C(=O)O; NEtPhe(4-Me) = CCN[C@@H](Cc1ccc(C)cc1)C(=O)O; NMeAbu(4,4,4-F3) = CN[C@@H](CC(F)(F)F)C(=O)O; NMePhe(4-Me) = CN[C@@H](Cc1ccc(C)cc1)C(=O)O; NMeGly(cPent) = CN[C@H](C(=O)O)C1CCCC1; NMeGly(cBu) = CN[C@H](C(=O)O)C1CCC1; NMeD = CN[C@@H](CC(=O)O)C(=O)O; NMeL = CN[C@@H](CC(C)C)C(=O)O; Oxazolidin(3-yl) = C1CN(*)CO1; Morpholide = C1CN(*)CCO1; NMeA = CN[C@@H](C)C(=O)O; NMeAib = CNC(C)(C)C(=O)O; Nle = CCCC[C@H](N)C(=O)O; Piperidide = C1CCN(*)CC1; Ac5c = NC1(C(=O)O)CCCC1; Aze = O=C(O)[C@@H]1CCN1; Sar = CNCC(=O)O
Each record here notes measured pKd.

compound | pKd
CCCN1C(=O)CN(C)C(=O)CN(C)C(=O)[C@H]([C@@H](C)CC)NC(=O)[C@H](C2CCC2)N(C)C(=O)C[C@@H](C(=O)N2CCOCC2)N(C)C(=O)[C@H](C2CCCC2)N(C)C(=O)C2(CCCC2)NC(=O)[C@@H]2CCCN2C(=O)[C@H](CCc2ccc(C(F)(F)F)c(Cl)c2)NC(=O)CN(C)C(=O)[C@@H]1Cc1ccc(C(F)(F)F)cc1 [PP0188] ([NMeGly(cBu)]I[Sar][Sar][NPrPhe(4-CF3)][Sar][hPhe(3-Cl-4-CF3)]P[Ac5c][NMeGly(cPent)][NMeD]-Morpholide; lactam N-11) | 9.60
CC[C@H](C)[C@@H]1NC(=O)[C@H](CC(F)(F)F)N(C)C(=O)C[C@@H](C(=O)N2CCOCC2)N(C)C(=O)[C@H](C2CCCC2)N(C)C(=O)C2(CCCC2)NC(=O)[C@@H]2CCCN2C(=O)[C@H](CCc2ccc(C(F)(F)F)c(Cl)c2)NC(=O)CN(C)C(=O)[C@H](Cc2ccc(C)cc2)N(CC)C(=O)CN(C)C(=O)CN(C)C1=O [PP0032] ([NMeAbu(4,4,4-F3)]I[Sar][Sar][NEtPhe(4-Me)][Sar][hPhe(3-Cl-4-CF3)]P[Ac5c][NMeGly(cPent)][NMeD]-Morpholide; lactam N-11) | 9.43
CCC[C@H]1C(=O)N[C@@H]([C@@H](C)CC)C(=O)N(C)CC(=O)N(C)[C@H]2C/C=C\CCN(C2=O)[C@@H](Cc2ccc(C(F)(F)F)cc2)C(=O)N(C)CC(=O)N[C@@H](CCc2cc(F)c(C(F)F)c(F)c2)C(=O)N2C[C@H](OCC)C[C@H]2C(=O)NC2(CC(C)(C)C2)C(=O)N(C)[C@@H](C2CCCC2)C(=O)N(C)[C@H](C(=O)N(C)C)CC(=O)N1C | 9.52
CCCN1C(=O)CN(C)C(=O)CNC(=O)[C@H]([C@@H](C)CC)NC(=O)[C@H](CC(C)C)N(C)C(=O)C[C@@H](C(=O)N2CCOCC2)NC(=O)[C@H](C2CCCC2)N(C)C(=O)C2(CCCC2)NC(=O)[C@@H]2CCCN2C(=O)[C@H](CCc2ccc(C(F)(F)F)c(Cl)c2)NC(=O)CN(C)C(=O)[C@@H]1Cc1ccc(C(F)(F)F)cc1 [PP0325] ([NMeL]IG[Sar][NPrPhe(4-CF3)][Sar][hPhe(3-Cl-4-CF3)]P[Ac5c][NMeGly(cPent)]D-Morpholide; lactam N-11) | 8.96
CCC[C@H]1C(=O)N[C@@H]([C@@H](C)CC)C(=O)N(C)CC(=O)N(C)[C@H]2C/C=C\CCN(C2=O)[C@@H](Cc2ccc(C(F)(F)F)cc2)C(=O)N(C)CC(=O)N[C@@H](CCc2ccc(Cl)c(Cl)c2)C(=O)N2C[C@H](OCC)C[C@H]2C(=O)NC2(CC(C)(C)C2)C(=O)N(C)[C@@H](CC2CC2)C(=O)N(C)[C@H](C(=O)N(C)C)CC(=O)N1C | 9.09
CCC(CC)[C@@H]1NC(=O)[C@H](CC(C)C)N(C)C(=O)C[C@@H](C(=O)N2CCOCC2)N(C)C(=O)[C@H](C2CCCC2)N(C)C(=O)C2(CCCC2)NC(=O)[C@@H]2CCCN2C(=O)[C@H](CCc2cc(F)c(C(F)(F)F)c(F)c2)NC(=O)CN(C)C(=O)[C@H](Cc2ccc(C(F)(F)F)cc2)N2CCCC[C@@H](C2=O)N(C)C(=O)CN(C)C1=O | 9.48
CCCN1C(=O)CN(C)C(=O)CN(C)C(=O)[C@H]([C@@H](C)CC)NC(=O)[C@H](CC(C)C)N(C)C(=O)C[C@@H](C(=O)N2CCOC2)N(C)C(=O)[C@H](C2CCCC2)N(C)C(=O)C2(CCCC2)NC(=O)[C@@H]2CCCN2C(=O)[C@H](CCc2ccc(C(F)(F)F)c(Cl)c2)NC(=O)CN(C)C(=O)[C@@H]1Cc1ccc(C(F)(F)F)cc1 [PP0174] ([NMeL]I[Sar][Sar][NPrPhe(4-CF3)][Sar][hPhe(3-Cl-4-CF3)]P[Ac5c][NMeGly(cPent)][NMeD]-{Oxazolidin(3-yl)}; lactam N-11) | 9.82
CCCC[C@@H]1NC(=O)[C@H](CCc2ccc(C(F)(F)F)c(Cl)c2)NC(=O)CN(C)C(=O)[C@H](Cc2ccc(C)cc2)N(C)C(=O)[C@@H]2CCN2C(=O)[C@H](C)N(C)C(=O)[C@H]([C@@H](C)CC)NC(=O)[C@H](CC(C)C)N(C)C(=O)C[C@@H](C(=O)N2CCCCC2)N(C)C(=O)[C@H](CC(C)C)NC(=O)C(C)(C)N(C)C1=O [PP0047] ([NMeL]I[NMeA][Aze][NMePhe(4-Me)][Sar][hPhe(3-Cl-4-CF3)][Nle][NMeAib]L[NMeD]-Piperidide; lactam N-11) | 7.74
CCC(CC)[C@H]1C(=O)N(C)[C@H](C(=O)N(C)C)CC(=O)N(C)[C@@H](COC)C(=O)N[C@@H]([C@@H](C)CC)C(=O)N(C2CC2)CC(=O)N(C)[C@H]2C/C=C\CCN(C2=O)[C@@H](CC2CCC(F)(F)CC2)C(=O)N(C)CC(=O)N[C@@H](CCc2cc(F)c(C(F)(F)F)c(F)c2)C(=O)N2C[C@H](OC3CCC3)C[C@H]2C(=O)NC2(CC(C)(C)C2)C(=O)N1C | 8.70
CCOC[C@H]1C(=O)N[C@@H]([C@@H](C)CC)C(=O)N(C2CC2)CC(=O)N(C)[C@H]2C/C=C\CCN(C2=O)[C@@H](Cc2ccc(C)cc2)C(=O)N(C)CC(=O)N[C@@H](CCc2cc(F)c(C(F)(F)F)c(F)c2)C(=O)N2C[C@H](OCC)C[C@H]2C(=O)NC2(CC(C)(C)C2)C(=O)N(C)[C@@H](CC(C)(C)C)C(=O)N(C)[C@H](C(=O)N(C)C)CC(=O)N1C | 9.46

* * *

- system-tested: UniProt:P01116
- assay-comment: Binding to KRAS by surface plasmon resonance (SPR), Single Cycle Kinetics
- assay-context: SPR, Single Cycle Kinetics, GDP-bound KRAS wild-type protein; read-out: KRAS KD
pKd: −log10 of the molar value.

substance-smiles | pKd
CCC[C@H]1C(=O)N[C@@H]([C@@H](C)CC)C(=O)N(C)CC(=O)N(C)[C@H]2C/C=C\CCN(C2=O)[C@@H](Cc2ccc(C)cc2)C(=O)N(C)CC(=O)N[C@@H](CCc2cc(F)c(C(F)(F)F)c(F)c2)C(=O)N2C[C@H](C)C[C@H]2C(=O)N(C)C2(CCC2)C(=O)N(C)[C@@H](C2CCCC2)C(=O)N(C)[C@H](C(=O)N(C)C)CC(=O)N1C | 10.17
CC[C@H](C)[C@@H]1NC(=O)[C@H](CC)N(C)C(=O)C[C@@H](C(=O)N(C)C)N(C)C(=O)[C@H](C2CCCC2)N(C)C(=O)C2(CCC2)NC(=O)[C@H](C)N(C)C(=O)[C@H](CCc2cc(F)c(C(F)(F)F)c(F)c2)NC(=O)CN(C)C(=O)[C@H](Cc2ccc(C(F)(F)F)cc2)N2CC/C=C\C[C@@H](C2=O)N(C)C(=O)CN(C)C1=O | 9.49
CC[C@H](C)[C@@H]1NC(=O)[C@H](CC)N(C)C(=O)C[C@@H](C(=O)N(C)C)N(C)C(=O)[C@H](C2CCCC2)N(C)C(=O)C2(CCC2)NC(=O)CN(CC)C(=O)[C@H](CCc2cc(F)c(C(F)(F)F)c(F)c2)NC(=O)CN(C)C(=O)[C@H](Cc2ccc(C(F)(F)F)cc2)N2CC/C=C\C[C@@H](C2=O)N(C)C(=O)CN(C)C1=O | 9.77
CCO[C@@H]1C[C@H]2C(=O)NC3(CCC3)C(=O)N(C)[C@@H](C3CCCC3)C(=O)N(C)[C@H](C(=O)N(C)C)CC(=O)N(C)[C@@H](CC)C(=O)N[C@@H]([C@@H](C)CC)C(=O)N(C)CC(=O)N(C)[C@H]3CCCCCN(C3=O)[C@@H](Cc3ccc(C(F)(F)F)cc3)C(=O)N(C)CC(=O)N[C@@H](CCc3c(F)c(F)c(C(F)(F)F)c(F)c3F)C(=O)N2C1 | 9.21
CCC[C@H]1C(=O)N[C@@H]([C@@H](C)CC)C(=O)N2CCC[C@H]2C(=O)N(C)[C@H]2C/C=C\CCN(C2=O)[C@@H](Cc2ccc(C(F)(F)F)cc2)C(=O)N(C)CC(=O)N[C@@H](CCc2ccc(C(F)(F)F)c(OC)c2)C(=O)N2C[C@H](OCC)C[C@H]2C(=O)N(C)C2(CCC2)C(=O)N(C)[C@@H](C2CCCC2)C(=O)N(C)[C@H](C(=O)N2CCCC2)CC(=O)N1C | 9.57
CC[C@H](C)[C@@H]1NC(=O)[C@H](CC(C)C)N(C)C(=O)C[C@@H](C(=O)N2CCOCC2)N(C)C(=O)[C@H](C2CCCC2)N(C)C(=O)C2(CCC2)NC(=O)[C@@H]2[C@@H](OCC3CC3)CCN2C(=O)[C@H](CCc2cc(F)c(C(F)(F)F)c(F)c2)NC(=O)CN(C)C(=O)[C@H](Cc2ccc(C(F)(F)F)cc2)N2CCCC[C@@H](C2=O)N(C)C(=O)CN(C)C1=O | 10.20
